# Tested on: CAMK1;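 note: KINOMEscan kinase panel screen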
# TEST_SETTINGS: concentration: 1 μM, replicates: in singlicate; n = 1
I'd appreciate it if you could supply %Inh values for the items below.
Answers are plain numbers, in %.

Here's what some known entries look like.
COc1cccc(-c2ccc3c(NC(=O)C4CC4)n[nH]c3n2)c1 has a reported %Inh of 0

COc1ccc(-c2coc3ccc(-c4nnc(SCc5ccc(OC)c(C(F)(F)F)c5)o4)cc23)cc1 has a reported %Inh of 0

FC(F)(F)c1ccc(/C=C/c2cncnc2Nc2ccc3[nH]c(Cc4ccccc4)nc3c2)cc1 has a reported %Inh of 0

Clc1ccc(-c2nn3ncccc3c2-c2ccnc(Nc3ccc4c(c3)OCCO4)n2)cc1 has a reported %Inh of 0

CC(=O)Nc1nc2cnc(Nc3cc(NC(=O)c4cccc(C5(C#N)CC5)c4Cl)ccc3C)nc2s1 has a reported %Inh of 35

CCn1c(-c2nonc2N)nc2c(C#CC(C)(C)O)nc(OC[C@H](N)c3ccccc3)cc21 has a reported %Inh of 0

Please look at the following compound next.
c1ccc(Oc2ccc(Nc3ccnc4cc(-c5ccc(CNCCN6CCOCC6)o5)ccc34)cc2)nc1 has a reported %Inh of 26
